// melting point lookup, one value per entry
measurement type: melting point

# smiles notation, result
records = [
    ("O=C(Nc1ccc2c(ccn2C(=O)c2cccc(F)c2)c1)c1ccc(Cl)c(Cl)c1", "237.6 to 238.6 °C"),
    ("O=C(Nc1ccc([N+](=O)[O-])cc1)Nc1ccc2c(ccn2C(=O)c2cccc(F)c2)c1", "249.1 to 250.1 °C"),
    ("O=C(c1cccc(F)c1)n1ccc2cc(NC(=S)Nc3cccnc3)ccc21", "144.9 to 145.9 °C"),
    ("O=C(NCCc1ccc(F)cc1)Nc1ccc2c(ccn2C(=O)c2cccc(F)c2)c1", "231.5 to 232.5 °C"),
]

====

protocol summary: Protective effect against 6-OHDA-induced cytotoxicity in PC12 cells (MTT)
protocol conditions: rat

# molecule, viability at 24 h, 50 μM
rows = [
    ("NCCc1cc(O)c(O)cc1O [Compound 6-OHDA, 6-Hydroxydopamine, reference compound]", "47.5%"),
]

====

# smiles notation, melting point
measured = [
    ("COc1cc(NC(=S)Nc2ccc3c(ccn3C(=O)c3cccc(F)c3)c2)cc(OC)c1", "171.1 to 172.1 °C"),
    ("O=C(Nc1ccc2c(ccn2C(=O)c2cccc(F)c2)c1)c1coc2ccccc2c1=O", "226.6 to 227.6 °C"),
    ("O=C(c1cccc(F)c1)n1ccc2cc(NC(=S)NCc3ccco3)ccc21", "152.6 to 153.6 °C"),
    ("O=C(c1cccc(F)c1)n1ccc2cc(NC(=S)NCCN3CCCCC3)ccc21", "187.1 to 188.1 °C"),
    ("O=C(Nc1ccc2c(ccn2C(=O)c2cccc(F)c2)c1)NC1CCCCC1", "222.7 to 223.7 °C"),
    ("O=C(NCCCl)Nc1ccc2c(ccn2C(=O)c2cccc(F)c2)c1", "191.3 to 192.3 °C"),
    ("CCOC(=O)CNC(=O)Nc1ccc2c(ccn2C(=O)c2cccc(F)c2)c1", "203.3 to 204.3 °C"),
    ("O=C(c1cccc(F)c1)n1ccc2cc(NC(=S)NCCCl)ccc21", "221.5 to 222.5 °C"),
    ("O=C(NCc1ccc2c(c1)OCO2)c1ccc2[nH]ccc2c1", "131.6 to 132.6 °C"),
    ("O=C(Nc1ccc(Cl)c(C(F)(F)F)c1)Nc1ccc2c(ccn2C(=O)c2cccc(F)c2)c1", "210.9 to 211.9 °C"),
    ("COC(=O)c1ccc2c(ccn2C(=O)c2cccc(F)c2)c1", "103.4 to 104.4 °C"),
]

====

// melting point lookup, one value per entry
measurement type: melting point

# smiles notation, measurement type, result
rows = [
    ("O=C(c1cccc(F)c1)n1ccc2cc(NC(=S)Nc3ccc(N4CCOCC4)cc3)ccc21", "melting point", "192.7 to 193.7 °C"),
    ("O=C(Nc1ccc(Oc2ccccc2)cc1)Nc1ccc2c(ccn2C(=O)c2cccc(F)c2)c1", "melting point", "235.2 to 236.2 °C"),
    ("COc1cc(NC(=O)Nc2ccc3c(ccn3C(=O)c3cccc(F)c3)c2)cc(OC)c1", "melting point", "235.6 to 236.6 °C"),
    ("CCOC(=O)Nc1ccc2c(ccn2C(=O)c2cccc(F)c2)c1", "melting point", "136.5 to 137.5 °C"),
    ("O=C(Nc1ccc2c(ccn2C(=O)c2cccc(F)c2)c1)c1ccnc([N+](=O)[O-])c1", "melting point", "278.1 to 279.1 °C"),
    ("O=C(Nc1ccc(F)cc1)Nc1ccc2c(ccn2C(=O)c2cccc(F)c2)c1", "melting point", "264.3 to 265.3 °C"),
    ("CCOC(=O)NC(=S)Nc1ccc2c(ccn2C(=O)c2cccc(F)c2)c1", "melting point", "199.4 to 200.4 °C"),
    ("O=C(c1cccc(F)c1)n1ccc2cc(NC(=S)Nc3ccc(Cl)c(Cl)c3)ccc21", "melting point", "193.4 to 194.4 °C"),
]

====

study target: Human recombinant MAO-B (hMAO-B) (Homo sapiens, UniProt P27338)
Construct: purchased Sigma-Aldrich; host or cells: insect cells
Sequence (P27338 whole entry): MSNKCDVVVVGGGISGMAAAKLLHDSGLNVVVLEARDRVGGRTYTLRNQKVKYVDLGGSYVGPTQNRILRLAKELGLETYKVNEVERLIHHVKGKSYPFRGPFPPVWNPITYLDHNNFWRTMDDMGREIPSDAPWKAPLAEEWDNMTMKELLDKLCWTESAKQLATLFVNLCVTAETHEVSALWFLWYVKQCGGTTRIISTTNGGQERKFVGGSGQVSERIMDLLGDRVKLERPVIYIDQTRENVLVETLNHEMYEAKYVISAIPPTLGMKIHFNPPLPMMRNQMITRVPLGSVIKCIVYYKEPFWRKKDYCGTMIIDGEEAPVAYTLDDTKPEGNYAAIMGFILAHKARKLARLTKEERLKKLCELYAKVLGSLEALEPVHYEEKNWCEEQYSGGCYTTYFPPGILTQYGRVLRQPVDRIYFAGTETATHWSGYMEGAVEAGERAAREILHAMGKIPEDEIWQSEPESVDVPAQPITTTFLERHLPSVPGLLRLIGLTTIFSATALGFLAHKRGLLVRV
protocol summary: MAO-B inhibition assay (Amplex Red fluorescence, benzylamine substrate)
Type: biochemical
protocol conditions: single dose 10 µM
measurement type: inhibition at 10 µM (%)

# smiles notation, result
data = [
    ("COc1cc(NC(=O)Nc2ccc3c(ccn3C(=O)c3cccc(F)c3)c2)cc(OC)c1", 55.7),
    ("O=C(Nc1ccc(Cl)c(Cl)c1)Nc1ccc2c(ccn2C(=O)c2cccc(F)c2)c1", 53.5),
    ("O=C(c1cccc(F)c1)n1ccc2cc(NC(=S)Nc3cccnc3)ccc21", 51.1),
    ("COc1ccc(NC(=O)Nc2ccc3c(ccn3C(=O)c3cccc(F)c3)c2)cc1", 32.5),
    ("O=C(c1cccc(F)c1)n1ccc2cc(NC(=S)NCc3ccco3)ccc21", 34.1),
]
